pIC50: −log10 of the molar value.
Parameter pIC50, tested on UniProt P23977, listed per item.
Sequence (P23977 whole entry): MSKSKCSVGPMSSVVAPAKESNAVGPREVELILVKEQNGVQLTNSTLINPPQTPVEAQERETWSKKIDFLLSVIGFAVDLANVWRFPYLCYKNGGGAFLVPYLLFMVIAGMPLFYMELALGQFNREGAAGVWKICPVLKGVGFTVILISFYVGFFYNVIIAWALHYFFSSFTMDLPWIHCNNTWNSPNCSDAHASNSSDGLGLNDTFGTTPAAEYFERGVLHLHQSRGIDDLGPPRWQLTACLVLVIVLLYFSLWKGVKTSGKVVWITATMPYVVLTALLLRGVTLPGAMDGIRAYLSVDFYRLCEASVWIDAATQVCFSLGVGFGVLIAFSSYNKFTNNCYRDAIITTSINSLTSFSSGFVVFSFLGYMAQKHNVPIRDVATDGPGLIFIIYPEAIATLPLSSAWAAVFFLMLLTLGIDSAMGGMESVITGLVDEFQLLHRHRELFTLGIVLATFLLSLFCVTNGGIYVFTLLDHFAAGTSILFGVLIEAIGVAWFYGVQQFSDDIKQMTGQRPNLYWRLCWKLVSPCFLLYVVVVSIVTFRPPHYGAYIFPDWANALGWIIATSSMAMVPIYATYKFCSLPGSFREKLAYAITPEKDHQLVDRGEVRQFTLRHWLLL

{"COMPOUND": "CO[C@H]1CC2C[C@H](OC(c3ccccc3)c3ccccc3)CC1N2C (mixture of isomers)", "CENSORING_OPERATOR": "=", "pIC50": 6.19}
{"COMPOUND": "Fc1ccc(C(O[C@H]2C[C@H]3CC[C@@H](C2)O3)c2ccc(F)cc2)cc1", "CENSORING_OPERATOR": "=", "pIC50": 5.70}
{"COMPOUND": "CO[C@H]1CC2C[C@H](OC(c3ccc(F)cc3)c3ccc(F)cc3)CC1N2C (some centres not stated)", "CENSORING_OPERATOR": "=", "pIC50": 7.02}
{"COMPOUND": "CO[C@@H]1CC2C[C@@H](OC(c3ccc(F)cc3)c3ccc(F)cc3)CC1N2C (some centres not stated)", "CENSORING_OPERATOR": "=", "pIC50": 7.60}
{"COMPOUND": "CO[C@H]1CC2C[C@H](OC(c3ccccc3)c3ccc(Cl)cc3)CC1N2C (some centres not stated)", "CENSORING_OPERATOR": "=", "pIC50": 6.12}
{"COMPOUND": "c1ccc(C(O[C@H]2C[C@H]3CC[C@@H](C2)O3)c2ccccc2)cc1", "CENSORING_OPERATOR": "<", "pIC50": 5.00}
{"COMPOUND": "CO[C@@H]1CC2C[C@@H](OC(c3ccccc3)c3ccc(Cl)cc3)CC1N2C (some centres not stated)", "CENSORING_OPERATOR": "=", "pIC50": 7.49}
